test system: DU145 prostate cancer cells; experiment: MTS cell viability assay in DU145 prostate cancer cells; format: cell-based; details: DU145, compound in DMSO, 48 hr, MTS (Table 2b); read-out: IC50 value, DMSO, DU145
Rule for this label: yes means IC50 is less than 1000 nM; no means IC50 is at least 1000 nM.

Worked examples follow.
COMPOUND	QUALITATIVE_LABEL
O=C1C(=O)N(CCCc2cccnc2)c2ccc(-c3cccnc3)cc21 [Compound 104]	yes
O=C1C(=O)N(Cc2cccc(-c3cccnc3)c2)c2ccc(-c3cccnc3)cc21	no
O=C1C(=O)N(C/C=C/c2ccncc2)c2ccc(-c3cccnc3)cc21	yes
O=C1C(=O)N(C/C=C/c2cccnc2)c2ccc(-c3cccnc3)cc21	yes
O=C1C(=O)N(Cc2ccc(-c3cccnc3)cc2)c2ccc(-c3cccnc3)cc21	yes
O=C1C(=O)N(Cc2ccccn2)c2ccc(-c3cccnc3)cc21	no
O=C1C(=O)N(C/C=C/c2ccc3ccccc3n2)c2ccc(-c3cccnc3)cc21	no
O=C1C(=O)N(CCCc2cccnc2)c2ccc(-c3cccnc3)cc21 [Compound 105]	no

# next compound below
Q: Lab note: confirm whether the reported IC50 for this compound is below 1000 nM, equality not counting. compound: O=C1C(=O)N(C/C=C/c2ccccn2)c2ccc(-c3cccnc3)cc21
Ans: yes

----------
system: DU145 prostate cancer cells; test: MTS cell viability assay in DU145 prostate cancer cells; type: cell-based; conditions: Homo sapiens, DU-145, 48 h, DU145, compound in DMSO, 48 hr, MTS (Table 2b); read-out: IC50 value, DMSO, DU145
Some compounds, each annotated with its measured IC50.
Enter your answer as a number in nM; do not include the unit.

Use the examples below as a reference point.
COMPOUND	SUBJECT_OF_TEST	READOUT_UNITS	IC50
O=C1C(=O)N(Cc2ccc(-c3cccnc3)cc2)c2ccc(-c3cccnc3)cc21 [Compound 122]	DU145 prostate cancer cells	nM	580
O=C1C(=O)N(Cc2ccc(I)cc2)c2ccc(-c3cccnc3)cc21 [Compound 121]	DU145 prostate cancer cells	nM	500
O=C1C(=O)N(C/C=C/c2ccccc2)c2ccc(-c3cccc([N+](=O)[O-])c3)cc21 [Compound 101]	DU145 prostate cancer cells	nM	2100

Turning now to a further compound:
Q: Param item = O=C1C(=O)N(C/C=C/c2ccc3ccccc3n2)c2ccc(-c3cccnc3)cc21 [Compound 114] ; retrieve measured IC50.
Ans: 1000

----------
system: A2780 cisplatin-resistant ovarian cancer cells; assay: MTS cell viability assay in A2780 cisplatin-resistant ovarian cancer cells; type: cell-based; conditions: Homo sapiens, A2780, 48 h, A2780 cisplatin-resistant, 48 hr, 1% DMSO, MTS
Recorded IC50, one value per entry.
All answers are understood in nM, so give the number only.

COMPOUND	MEASURED_ENDPOINT	READOUT_UNITS	VAL
O=C1C(=O)N(C/C=C/c2ccccc2)c2ccc(-c3cccnc3)cc21 [Compound 22]	IC50	nM	440
O=C1C(=O)N(Cc2ccsc2)c2ccc(-c3cccnc3)cc21 [Compound 16]	IC50	nM	500
O=C1C(=O)N(CCCc2ccccc2)c2ccc(-c3cccnc3)cc21 [Compound 9]	IC50	nM	750

Next compound, IC50 to be filled in.
Q: Request: IC50, test system A2780 cisplatin-resistant ovarian cancer cells, entry O=C1C(=O)N(Cc2cccs2)c2ccc(-c3cccnc3)cc21 [Compound 12]
Ans: 900

----------
tested on: A2058 human melanoma cells; test: MTS cell viability assay in A2058 melanoma cells; assay type: cell-based; conditions: Homo sapiens, A2058, 48 h, A2058, compound in DMSO, 48 hr, MTS (Table 2b); read-out: IC50 value, DMSO, A2058
MEASURED_ENDPOINT: pIC50
By convention, pIC50 is the negative base-10 log of a molar concentration.

See these solved cases before continuing.
COMPOUND	SUBJECT_OF_TEST	MEASURED_ENDPOINT	VAL
O=C1C(=O)N(Cc2ccc(-c3cccnc3)cc2)c2ccc(-c3cccnc3)cc21 [Compound 122]	A2058 human melanoma cells	pIC50	6.42
O=C1C(=O)N(Cc2cccc(-c3cccnc3)c2)c2ccc(-c3cccnc3)cc21 [Compound 119]	A2058 human melanoma cells	pIC50	5.85

Q: Requested field: pIC50. Item: O=C1C(=O)N(Cc2ccc(I)cc2)c2ccc(-c3cccnc3)cc21 [Compound 121]
Ans: 6.46

Q: How about O=C1C(=O)N(C/C=C/c2ccc3ccccc3n2)c2ccc(-c3cccnc3)cc21 [Compound 114] ?
Ans: 6.19

Q: Then what about the compound O=C1C(=O)N(Cc2ccccc2I)c2ccc(-c3cccnc3)cc21 [Compound 117] ?
Ans: 5.72

----------
System: A2058 human melanoma cells
Experiment: MTS cell viability assay in A2058 melanoma cells
Assay type: cell-based
Conditions: Homo sapiens, A2058, 48 h, A2058, compound in water, 48 hr, MTS (Table 2b); read-out: IC50 value, Water, A2058
Method: Then, MTS assays for cell viability were carried out to determine the IC50 values. Four samples were tested for each isatin derivative at each concentration in each cell line, and the averaged data were shown in Table 2a and FIGS. 1˜4. IC50 of values of isatin derivatives Compounds 101˜123 were determined in cancer cell lines DU145 and A2058 respectively.
MEASURED_ENDPOINT: IC50 (µM)
Numbers only here, please. The scale is µM.

Solved entries:
ENTRY_SMILES	MEASURED_ENDPOINT	VAL
O=C1C(=O)N(C/C=C/c2ccc3ccccc3n2)c2ccc(-c3cccnc3)cc21	IC50	1.9
O=C1C(=O)N(C/C=C/c2cccnc2)c2ccc(-c3cccnc3)cc21	IC50	1
O=C1C(=O)N(Cc2cccc(-c3cccnc3)c2)c2ccc(-c3cccnc3)cc21	IC50	1.9
O=C1C(=O)N(C/C=C/c2ccccn2)c2ccc(-c3cccnc3)cc21	IC50	0.84
O=C1C(=O)N(C/C=C/c2ccncc2)c2ccc(-c3cccnc3)cc21	IC50	1.6
O=C1C(=O)N(CCCc2cccnc2)c2ccc(-c3cccnc3)cc21	IC50	4.7

Q: What is its IC50 for A2058 human melanoma cells? Entry: O=C1C(=O)N(Cc2ccc(-c3cccnc3)cc2)c2ccc(-c3cccnc3)cc21
Ans: 0.8

----------
system: A2058 human melanoma cells; test: MTS cell viability assay in A2058 melanoma cells; format: cell-based; conditions: Homo sapiens; A2058, 48 hr, 0.05 to 10 μM in 1% DMSO, MTS (Table 2a); read-out: A2058 IC50
MEASURED_ENDPOINT: pIC50
Scale note: pIC50 = -log10(concentration in M).

Q: Name the recorded pIC50 for C[Si](C)(C)CCOCN1C(=O)C(=O)c2cc(I)ccc21 [Compound 6] .
Ans: 5.16

----------
system: A2058 human melanoma cells; assay: MTS cell viability assay in A2058 melanoma cells; format: cell-based; settings: Homo sapiens, A2058, 48 h, A2058, compound in DMSO, 48 hr, MTS (Table 2b); read-out: IC50 value, DMSO, A2058
MEASURED_ENDPOINT: pIC50
FYI, pIC50 means -log10 of a concentration in mol per litre.

Use the examples below as a reference point.
ENTRY_SMILES	pIC50
O=C1C(=O)N(C/C=C/c2cccnc2)c2ccc(-c3cccnc3)cc21	6.30
O=C1C(=O)N(Cc2ccccc2-c2cccnc2)c2ccc(-c3cccnc3)cc21	5.48

Q: What value of pIC50 has been reported for the following compound? O=C1C(=O)N(C/C=C/c2cccnc2Cl)c2ccc(-c3cccnc3)cc21
Ans: 6.41

Q: Would you kindly repeat that for O=C1C(=O)N(C/C=C/c2ccccn2)c2ccc(-c3cccnc3)cc21 ?
Ans: 6.24

Q: Can you check O=C1C(=O)N(C/C=C/c2ccncc2)c2ccc(-c3cccnc3)cc21 next?
Ans: 5.85

Q: Also O=C1C(=O)N(C/C=C/c2ccccc2)c2ccc(-c3cccc([N+](=O)[O-])c3)cc21 ?
Ans: 5.66

Q: Quick one: O=C1C(=O)N(Cc2ccccn2)c2ccc(-c3cccnc3)cc21
Ans: 5.36

----------
In this section, each of the molecules is paired with its reported pIC50.
system: DU145 prostate cancer cells; assay: MTS cell viability assay in DU145 prostate cancer cells; type: cell-based; conditions: Homo sapiens, DU-145, 48 h, DU145, compound in DMSO, 48 hr, MTS (Table 2b); read-out: IC50 value, DMSO, DU145
# reply with the number alone; pIC50 is -log10 of concentration in mol/L

Examples with answers:
ENTRY_SMILES	pIC50
O=C1C(=O)N(C/C=C/c2cccnc2Cl)c2ccc(-c3cccnc3)cc21	6.18
O=C1C(=O)N(C/C=C/c2ccncc2)c2ccc(-c3cccnc3)cc21	6.13
O=C1C(=O)N(C/C=C/c2ccccn2)c2ccc(-c3cccnc3)cc21	6.33
O=C1C(=O)N(C/C=C/c2cccnc2)c2ccc(-c3cccnc3)cc21	6.35
O=C1C(=O)N(Cc2cccc(-c3cccnc3)c2)c2ccc(-c3cccnc3)cc21	5.64

Q: pIC50 of O=C1C(=O)N(Cc2ccccc2I)c2ccc(-c3cccnc3)cc21 on DU145 prostate cancer cells?
Ans: 5.47

Q: O=C1C(=O)N(Cc2ccccn2)c2ccc(-c3cccnc3)cc21 ?
Ans: 5.37
